assay: Rat PK study #3 (ABBV-744 IV 1 mg/kg and PO 5 mg/kg); format: in vivo, SD rats; settings: male, Sprague-Dawley, rat, plasma, iv, 1 mg/kg, SD rats, IV 1 mg/kg, DMSO/PEG-400/Milli-Q water formulation, 2 h, individual animals
parameter: concentration at 2 h (ng/mL)
Response body: numeric value in ng/mL, unit text excluded.

Entry under review: `CCNC(=O)c1cc2c(-c3cc(C(C)(C)O)ccc3Oc3c(C)cc(F)cc3C)cn(C)c(=O)c2[nH]1` . Reported concentration at 2 h?
103

* * *

assay: Dog PK study #4 (Compound A PO daily 14 days, 1/3/10 mg/kg; toxicokinetics, platelet counts); format: in vivo, beagle dogs; details: beagle, dog, plasma, oral; after daily administration for 14 days, 3 mg/kg, Male, 1 h
parameter: concentration at 1 h

Entry under review: `Cn1cc(-c2ccccc2)c(-c2cn(C)c(=O)c3[nH]c(-c4cnn(C(F)(F)F)c4)cc23)cc1=O` . Reported concentration at 1 h?
201 ng/mL

* * *

target: BRD4 BD2 (Homo sapiens, UniProt O60885); construct: HEK293 cells were transfected using NanoLuc-BRD4-BD1 or NanoLuc-BRD4-BD2 fusion vectors; assay: NanoBRET bromodomain assay, NanoLuc-BRD4-BD2 in HEK293 cells; type: binding; details: IC50 BD1/IC50 BD2; qualitative if an IC50 is at the upper limit
parameter: Fold Selectivity BRD4 BD1/BD2

Solved cases (8 shown):
compound	test_target	parameter	observed_value
Cc1cccc(C)c1Oc1cn(C)c(=O)cc1-c1cn(C)c(=O)c2[nH]c(-c3cccc(C(F)F)c3F)cc12 [Example 95]	BRD4 BD2 (Homo sapiens, UniProt O60885)	Fold Selectivity BRD4 BD1/BD2	xx (Fold >50 and ≤200)
Cc1cccc(C)c1Oc1cn(C2CC2)c(=O)cc1-c1cn(C)c(=O)c2[nH]c(-c3ccc(F)cc3F)cc12 [Example 39]	BRD4 BD2 (Homo sapiens, UniProt O60885)	Fold Selectivity BRD4 BD1/BD2	xxxx (Fold >1000)
CCn1cc(-c2cc(=O)n(C)cc2-c2ccccc2)c2cc(-c3cnn(C(F)(F)F)c3)[nH]c2c1=O [Example 19]	BRD4 BD2 (Homo sapiens, UniProt O60885)	Fold Selectivity BRD4 BD1/BD2	xxxx (Fold >1000)
Cn1cc(-c2cc(=O)n(CCOC(F)(F)F)cc2-c2ccccc2)c2cc(-c3cnn(C(F)(F)F)c3)[nH]c2c1=O [Example 59]	BRD4 BD2 (Homo sapiens, UniProt O60885)	Fold Selectivity BRD4 BD1/BD2	xx (Fold >50 and ≤200)
Cn1cc(-c2cccc(CN3CCNCC3)c2)c(-c2cn(C)c(=O)c3[nH]c(-c4cnn(C(F)(F)F)c4)cc23)cc1=O [Example 4]	BRD4 BD2 (Homo sapiens, UniProt O60885)	Fold Selectivity BRD4 BD1/BD2	— (Fold ≥0 and ≤2)
Cc1cccc(C)c1Oc1cn(C)c(=O)cc1-c1cn(C)c(=O)c2[nH]c(-c3ccc(CO)cc3F)cc12 [Example 58]	BRD4 BD2 (Homo sapiens, UniProt O60885)	Fold Selectivity BRD4 BD1/BD2	xxxx (Fold >1000)
Cn1cc(-c2cccc3c2COC3)c(-c2cn(C)c(=O)c3[nH]c(-c4ccc(F)cc4F)cc23)cc1=O [Example 6]	BRD4 BD2 (Homo sapiens, UniProt O60885)	Fold Selectivity BRD4 BD1/BD2	xxxx (Fold >1000)
COCc1ccc(-c2cn(C)c(=O)cc2-c2cn(C)c(=O)c3[nH]c(-c4cnn(C(F)(F)F)c4)cc23)cc1 [Example 8]	BRD4 BD2 (Homo sapiens, UniProt O60885)	Fold Selectivity BRD4 BD1/BD2	xxxx (Fold >1000)

Entry under review: Cc1cc(-c2cc3c(-c4cc(=O)n(C5CC5)cc4-c4ccccc4)cn(C)c(=O)c3[nH]2)cc(C)n1.Cl [Example 28] . Reported Fold Selectivity BRD4 BD1/BD2?
xxxx (Fold >1000)

Entry under review: CN(C)CCn1cc(-c2ccccc2)c(-c2cn(C)c(=O)c3[nH]c(-c4cnn(C(F)(F)F)c4)cc23)cc1=O.O=CO [Example 61] . Reported Fold Selectivity BRD4 BD1/BD2?
x (Fold >2 and ≤50)

Entry under review: Cn1cc(-c2cccc(COC(F)(F)F)c2)c(-c2cn(C)c(=O)c3[nH]c(-c4cnn(C(F)(F)F)c4)cc23)cc1=O [Example 17] . Reported Fold Selectivity BRD4 BD1/BD2?
xxxx (Fold >1000)

Entry under review: Cc1cccc(C)c1Oc1cn(C)c(=O)cc1-c1cn(C)c(=O)c2[nH]c(-c3cnn(CCF)c3)cc12 [Example 14] . Reported Fold Selectivity BRD4 BD1/BD2?
x (Fold >2 and ≤50)

Entry under review: Cc1cccc(C)c1Oc1cn(C2CC2)c(=O)cc1-c1cn(C)c(=O)c2[nH]c(-c3cccc(F)c3F)cc12 [Example 87] . Reported Fold Selectivity BRD4 BD1/BD2?
— (Fold ≥0 and ≤2)

Entry under review: Cn1cc(-c2ccccc2)c(-c2cn(C)c(=O)c3[nH]c(-c4cnn(C(F)(F)F)c4)c(F)c23)cc1=O [Example 21] . Reported Fold Selectivity BRD4 BD1/BD2?
xxxx (Fold >1000)

Entry under review: CN1CCC(n2cc(-c3ccccc3)c(-c3cn(C)c(=O)c4[nH]c(-c5cnn(C(F)(F)F)c5)cc34)cc2=O)CC1 [Example 63] . Reported Fold Selectivity BRD4 BD1/BD2?
xx (Fold >50 and ≤200)

* * *

assay: Dog PK study #3 (Compound A PO once daily 5 days, 5/10/20 mg/kg; PK, body weight, hematology); format: in vivo, beagle dogs; conditions: male, beagle, dog, plasma, po, 20 mg/kg, Day 1, 20 mg/kg dose PO; mean; read-out: MRT0-inf
parameter: MRT inf (h)
Response body: numeric value in h, unit text excluded.

Entry under review: `Cn1cc(-c2ccccc2)c(-c2cn(C)c(=O)c3[nH]c(-c4cnn(C(F)(F)F)c4)cc23)cc1=O` . Reported MRT inf?
13.9

* * *

assay: Rat PK study #3 (ABBV-744 IV 1 mg/kg and PO 5 mg/kg); type: in vivo, SD rats; conditions: male, Sprague-Dawley, rat, plasma, po, 5 mg/kg, SD rats, PO 5 mg/kg, DMSO/PEG-400/Milli-Q water formulation, 0.5 h, mean of 3 animals
parameter: concentration at 0.5 h
Write down the value, and be sure its unit follows.

Entry under review: `CCNC(=O)c1cc2c(-c3cc(C(C)(C)O)ccc3Oc3c(C)cc(F)cc3C)cn(C)c(=O)c2[nH]1` . Reported concentration at 0.5 h?
43 ng/mL

* * *

test: Rat PK study #3 (ABBV-744 IV 1 mg/kg and PO 5 mg/kg); type: in vivo, SD rats; details: male, Sprague-Dawley, rat, plasma, po, 5 mg/kg, SD rats, PO 5 mg/kg, DMSO/PEG-400/Milli-Q water formulation, 4 h, mean of 3 animals
parameter: concentration at 4 h (ng/mL)
Response body: numeric value in ng/mL, unit text excluded.

Entry under review: CCNC(=O)c1cc2c(-c3cc(C(C)(C)O)ccc3Oc3c(C)cc(F)cc3C)cn(C)c(=O)c2[nH]1 [ABBV-744] . Reported concentration at 4 h?
127

* * *

assay: CIA study: pharmacokinetics / plasma concentration after oral administration; type: in vivo, Lewis rats; details: Lewis, rat, plasma, po, 3 mg/kg, oral 3 mg/kg, day 21, 0.25 h, individual test subjects; read-out: Plasma concentration
parameter: concentration at 0.25 h (ng/mL)
Response body: numeric value in ng/mL, unit text excluded.

Entry under review: `Cn1cc(-c2ccccc2)c(-c2cn(C)c(=O)c3[nH]c(-c4cnn(C(F)(F)F)c4)cc23)cc1=O` . Reported concentration at 0.25 h?
18.4

* * *

molecular target: BRD4 BD2 (Homo sapiens); construct: HEK293 cells were transfected using NanoLuc-BRD4-BD1 or NanoLuc-BRD4-BD2 fusion vectors; test: NanoBRET bromodomain assay, NanoLuc-BRD4-BD2 in HEK293 cells; assay type: binding; settings: IC50 BD1/IC50 BD2; qualitative if an IC50 is at the upper limit

compound	Fold Selectivity BRD4 BD1/BD2
Cc1cccc(C)c1Oc1cn(C)c(=O)cc1-c1cn(C)c(=O)c2[nH]c(-c3cnn(CC#N)c3)cc12 [Example 96]	x (Fold >2 and ≤50)
Cn1cc(-c2cccnc2)c(-c2cn(C)c(=O)c3[nH]c(-c4cnn(C(F)(F)F)c4)cc23)cc1=O [Example 66]	x (Fold >2 and ≤50)

* * *

test: Rat PK study #3 (ABBV-744 IV 1 mg/kg and PO 5 mg/kg); assay type: in vivo, SD rats; settings: male, Sprague-Dawley, rat, plasma, iv, 1 mg/kg, SD rats, IV 1 mg/kg, DMSO/PEG-400/Milli-Q water formulation, 0.5 h, individual animals
parameter: concentration at 0.5 h (ng/mL)
Response body: numeric value in ng/mL, unit text excluded.

Entry under review: `CCNC(=O)c1cc2c(-c3cc(C(C)(C)O)ccc3Oc3c(C)cc(F)cc3C)cn(C)c(=O)c2[nH]1` . Reported concentration at 0.5 h?
191
